assay: NCI Yeast Anticancer Drug Screen. Data for the cln2 rad14 strain (AID 165);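 note: 0% = growth equal to vehicle treated cultures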; conditions: S. cerevisiae cln2 rad14 strain, at 50.0 µM (retest, dose inferred, filed as 5.0), stronger effect = higher value
About 79,000 compounds went through this panel and 15% of them were active in at least one assay; those are over-represented in the sample as a whole.
Binary call on growth inhibition: true (1) from 70% upward, false (0) beneath that.

INSERT INTO assay_data (compound, classification) VALUES
  ('C[N+](C)(C)CC(=O)N/N=C/c1oc(-c2c(O)ccc3ccccc23)c(-c2c(O)ccc3ccccc23)c1[N+](=O)[O-]', 'false (0)'),
  ('Oc1cc(F)cc2cccnc12', 'true (1)'),
  ('CC1(C)CC(=O)C(CC2C(=O)c3ccccc3C2=O)C(=O)C1C(=O)C(=O)Nc1cccc2ccc(O)cc12 (stereo not given)', 'false (0)'),
  ('CC(=O)Nc1cc(Cl)c2c(c1)C(=O)c1ccccc1-2', 'false (0)'),
  ('CCCCCc1cccc(CC(=O)OCC)n1', 'false (0)'),
  ('CN(C)c1cc2c(cc1[N+](=O)[O-])-c1ccccc1C2O (stereo not given)', 'false (0)'),
  ('COC(=O)/C=C(\NC1CC(OC2C[C@](O)(C(C)=O)Cc3c(O)c4c(c(O)c32)C(=O)c2c(OC)cccc2C4=O)OC(C)C1O)C(=O)OC (stereo not given in full)', 'true (1)'),
  ('N#CSc1ccc2nc(NCO)sc2c1', 'true (1)');

###

assay: NCI Yeast Anticancer Drug Screen. Data for the mec2-1 strain (AID 157); details: S. cerevisiae mec2-1 strain, at 50.0 µM (retest, dose inferred, filed as 5.0)
About 79,000 compounds went through this panel and 15% of them were active in at least one assay; those are over-represented in the sample as a whole. The source made the active and inactive calls. Rule as the data show it: active = growth inhibition above about 70%; inactive = the rest.
Classes used: true (1) for active, false (0) for inactive

INSERT INTO results (compound, classification) VALUES
  ('[N-]=[N+]=NC1=CC(=O)c2cccc3cccc1c23', 'true (1)'),
  ('O=C(Nc1ccc(Cl)c(Cl)c1Cl)Oc1c(Cl)c(Cl)c(Cl)c(Cl)c1Cl', 'true (1)'),
  ('S=C(Nc1cc(Cl)cc(Cl)c1)SCc1ccccc1', 'false (0)'),
  ('COc1cc(-c2oc(C=Nc3ccccc3)c([N+](=O)[O-])c2-c2ccc(O)c(OC)c2)ccc1O', 'false (0)'),
  ('COC(=O)C1=C(C(=O)OC)C2(C)OC1C(=O)C21CC1 (centres undefined)', 'true (1)'),
  ('C=C1CC(Cn2cc(C)c(=O)[nH]c2=O)(c2ccc(Cl)cc2)OC1=O (centres undefined)', 'true (1)'),
  ('CCSc1nnc(CSc2nc(-c3ccccc3)c(-c3ccccc3)[nH]2)n1-c1ccccc1', 'false (0)'),
  ('O=S(=O)(Nc1ccc2ccc3cccc4ccc1c2c34)c1ccccc1', 'false (0)'),
  ('N#CC(CC(Br)CBr)(c1ccccc1)c1ccccc1 (centres undefined)', 'false (0)'),
  ('CCN1CC(=O)N(C)C1=S', 'false (0)'),
  ('Oc1cc(F)ccc1-c1ccc(F)cc1', 'true (1)'),
  ('O=C(c1ccccc1)C1Cc2ccccc2C1=O (centres undefined)', 'false (0)'),
  ('Oc1c(C(Nc2ccccn2)c2ccccc2)ccc2cccnc12 (centres undefined)', 'true (1)'),
  ('CCCCCCCCCCCCCCCCCC[N+]1(CC)CCCCC1', 'true (1)'),
  ('CCCCCCCCCCCCCCCC(=O)N1CCOCC1', 'true (1)'),
  ('O=C(CBr)c1cc(-c2ccc(Cl)cc2)nc2ccccc12', 'true (1)'),
  ('FC(F)(F)c1ccc(NC(=S)SCc2ccc3c(c2)OCO3)cc1', 'false (0)'),
  ('CCN(CC)CCOc1ccc(NC(=S)Nc2ccc(OCC(C)C)cc2)cc1', 'false (0)'),
  ('CC(C)C1=CC23CCC4C(C)(C(=O)O)CCCC4(C)C2CC1C(C(=O)O)C3C(=O)O (centres undefined)', 'true (1)'),
  ('Cc1cc(N)c2cc(OCCOc3ccc4nc(C)cc(N)c4c3)ccc2n1', 'true (1)'),
  ('O=c1nc(N2CCCC2)nc(N2CCCC2)s1', 'false (0)'),
  ('CC(C)(C)C(=O)Nc1ccc2c(c1)C(=O)c1ccccc1C2=O', 'true (1)'),
  ('Cc1c2ccnc(-c3ccc(F)cc3)c2cc2c1[nH]c1ccccc12', 'false (0)'),
  ('Clc1ccc(-c2nnc(-c3ccccn3)o2)c(Cl)c1', 'true (1)');

###

assay: NCI Yeast Anticancer Drug Screen. Data for the cln2 rad14 strain (AID 165);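 note: 0% = growth equal to vehicle treated cultures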; settings: S. cerevisiae cln2 rad14 strain, at 5.0 µM (retest, dose inferred, filed as 0.5)
This is part of a sample that, as a whole, favours compounds with a hit. Of some 79,000 tested, about 15% had one in any assay. Activity calls are given as the source filed them. Rule as the data show it: active = growth inhibition above about 70%; inactive = the rest.
Outcome codes: label 1 (active), label 0 (inactive)

INSERT INTO results (molecule, classification) VALUES
  ('O=C(c1ccc(F)cc1)c1ccc(Cl)cc1Cl', 'label 1'),
  ('CC1=CC2OC3CC4OC(=O)/C=C/C=C/C(C(C)O)OCC(=O)C(C)CC(=O)OCC2(CC1)C4(C)C31CO1 (stereo unspecified)', 'label 1'),
  ('CCN(CC)CCC(=O)c1ccc(Oc2ccc(C)cc2)cc1', 'label 0'),
  ('Cc1cc2c(c3c1C(=O)CC3)C(C)(C)CC2(C)C', 'label 0'),
  ('O=Cc1ccc2ccc3ccccc3c2c1', 'label 0'),
  ('Oc1c(C(O)(c2ccccc2)c2ccc3ccccc3c2O)ccc2ccccc12', 'label 0'),
  ('FC(F)(F)c1cc(NC(=S)SC2CCCCC2)ccc1Cl', 'label 0'),
  ('CC(CC(C)[C@H]1CCC2[C@H]3C(CC(=O)[C@@]21C)[C@@]1(C)CCC(O)C[C@H]1C[C@@H]3O)C(=O)O (stereo partly specified)', 'label 0'),
  ('O=C(O)CCCc1ccc2ccccc2c1', 'label 0'),
  ('Nc1cc(Cl)c2c(c1)Cc1ccccc1-2', 'label 0'),
  ('Cc1nc(N)sc1N=Nc1cc(Cl)c([N+](=O)[O-])cc1Cl', 'label 0');

###

Each entry below lists one item and its recorded growth inhibition value.
assay: NCI Yeast Anticancer Drug Screen. Data for the rad50 strain (AID 155);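 note: 0% = growth of vehicle-only cultures of the same strain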; conditions: S. cerevisiae rad50 strain growth inhibition; at 5.0 µM (retest, dose inferred, filed as 0.5); stronger effect = higher value
About 79,000 compounds went through this panel and 15% of them were active in at least one assay; those are over-represented in the sample as a whole.
Value kind: growth inhibition (%)

INSERT INTO assay_data (compound, uom, reported_measurement) VALUES
  ('Nc1cc(Cl)c2c(c1)Cc1ccccc1-2', '%', 3),
  ('CC1CCN(CC(=O)N2c3ccccc3Sc3cc4ccccc4cc32)CC1', '%', 4),
  ('CC(NC(=O)OCc1ccccc1)C(=O)NNc1ccccc1Cl (configuration not stated)', '%', 88),
  ('CCOC(=O)C(=O)C1CCCCC1=O (configuration not stated)', '%', 9),
  ('O=C(Nc1ccc(C(F)(F)F)cc1[N+](=O)[O-])C(=O)C(C(=O)c1ccc2ccccc2c1)C1OC(=O)c2ccccc21 (configuration not stated)', '%', 26),
  ('COC(=O)c1n[nH]c(C(C)C)c1N=NN(C)C', '%', 29),
  ('Cc1csc2c1C(=O)c1ccsc1C2=O', '%', 54),
  ('O=C(O)c1cccc(S(=O)(=O)NN2C(=O)CSC2c2c(O)ccc3ccccc23)c1 (configuration not stated)', '%', -11),
  ('c1ccc2c(c1)ccc1ncccc12', '%', 8),
  ('O=C1C=C(O)c2cc(Br)ccc2C1=O.[Ag]', '%', 99),
  ('O=C1C=CC(=O)c2c1cc1ccccc1c2O', '%', 19),
  ('COc1ccc(C23OCCN2C(=O)c2ccccc23)cc1 (configuration not stated)', '%', 4);

###

assay: NCI Yeast Anticancer Drug Screen. Data for the cln2 rad14 strain (AID 165);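 note: 0% = growth equal to vehicle treated cultures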; settings: S. cerevisiae cln2 rad14 strain, at 50.0 µM (retest, dose inferred, filed as 5.0)
This is part of a sample that, as a whole, favours compounds with a hit. Of some 79,000 tested, about 15% had one in any assay. Activity calls are given as the source filed them. No stated cut-off is given here; in the data, active means growth inhibition above about 70%; inactive means the rest.
Possible outcomes: TRUE for active, FALSE for inactive

INSERT INTO assay_data (compound, classification) VALUES
  ('CC(=O)OC(C#N)CC(C)(C)/[N+]([O-])=[N+](\[O-])C(C)(C)CC(C#N)OC(C)=O (configuration not stated)', 'FALSE'),
  ('COc1ccccc1NC(=O)/C(=C/c1ccccc1)C(C)=O', 'FALSE'),
  ('CC[Si](CC)(CC)c1ccc(CCNCCS)s1', 'TRUE'),
  ('Nc1ccc(-c2nc3ccccc3s2)cc1I', 'FALSE'),
  ('Oc1ccccc1C(c1cc2c(cc1O)OCO2)N1CCOCC1 (configuration not stated)', 'TRUE'),
  ('CS(=O)c1cc(=O)c2ccccc2s1 (configuration not stated)', 'FALSE'),
  ('Cc1ccccc1NC(=S)N/N=C(/c1ccccc1)c1ccccn1', 'TRUE'),
  ('C(=[CH]/[Sn]([c]1ccccc1)([c]1ccccc1)[c]1ccccc1)/c1ccccc1', 'TRUE'),
  ('CCOc1cnn(-c2ccccc2)c(=O)c1SCc1ccc(Cl)c(Cl)c1', 'FALSE'),
  ('CC1CC(=O)OC(C(=O)c2ccccc2)N1c1ccc(C(F)(F)F)cc1N (configuration not stated)', 'FALSE'),
  ('C=CCc1cccc(/C=N\N=C(/N)NO)c1O', 'FALSE'),
  ('O=C1CCCC/C1=C/c1ccc(Cl)cc1', 'FALSE');
